target: human liver GK (Homo sapiens, UniProt P35557); construct: GST (glutathione S-transferase) (N); made in house; host or cells: E. coli; assay: GK activation test; type: biochemical; conditions: test compound concentration needed to activate 50% of maximum activation ability; 4 mM 14C-labeled glucose, 2 mM ATP, room temperature, 20 minutes
Sequence (P35557 1-466 isoform P35557-2): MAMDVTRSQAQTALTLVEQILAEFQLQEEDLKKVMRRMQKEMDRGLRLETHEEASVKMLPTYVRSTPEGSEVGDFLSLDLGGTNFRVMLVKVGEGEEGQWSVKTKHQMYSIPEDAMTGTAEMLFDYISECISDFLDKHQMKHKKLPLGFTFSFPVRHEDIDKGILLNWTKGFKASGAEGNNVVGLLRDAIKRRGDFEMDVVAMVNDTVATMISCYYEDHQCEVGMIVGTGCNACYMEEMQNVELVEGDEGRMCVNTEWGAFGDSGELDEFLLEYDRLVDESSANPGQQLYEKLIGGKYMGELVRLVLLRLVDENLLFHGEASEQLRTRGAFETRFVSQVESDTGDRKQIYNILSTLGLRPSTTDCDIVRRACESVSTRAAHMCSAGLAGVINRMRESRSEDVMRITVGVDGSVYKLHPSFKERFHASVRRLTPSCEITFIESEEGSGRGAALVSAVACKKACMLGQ
OBSERVABLE: EC50

Below are worked cases with known answers.
{"COMPOUND": "O=C1CC[C@H](/C=C(\\c2ccc(OC3CC3)cc2)c2ccc(Cl)c(=O)[nH]2)N1", "OBSERVABLE": "EC50", "TEST_RESULT": "500 to 3000 nM"}
{"COMPOUND": "Cc1ccc(/C(=C\\[C@H]2CCC(=O)N2)c2ccc(C3CC3)c(=O)[nH]2)cc1F", "OBSERVABLE": "EC50", "TEST_RESULT": "10 to 500 nM"}

Record O=C1CC[C@H](CC(c2ccc(S(=O)(=O)C3CC3)cc2)c2ccc(C3CC3)c(=O)[nH]2)N1 (single isomer, unassigned) [Example 4-306] , field EC50: 10 to 500 nM

Documented EC50 of `COc1ccc(/C(=C\C2CCOCC2)c2ccc(C(F)(F)F)c(=O)[nH]2)cc1Cl` : 500 to 3000 nM

Per the records, this compound ( `CCOc1ccc(/C(=C\[C@H]2CCC(=O)N2)c2ccc(C3CC3)c(=O)[nH]2)c(F)c1F` ) has EC50 equal to 10 to 500 nM

Measured EC50 of COc1ccc(C(C[C@H]2CCC(=O)N2)c2ccc(C(C)(C)C)cc2)[nH]c1=O (single isomer, unassigned) [Example 4-245] : 3000 to 10000 nM

The compound `CC(C)(C)c1ccc(/C(=C\Cn2cnccc2=O)c2ccc(Cl)c(=O)[nH]2)cc1` showed EC50 equal to 500 to 3000 nM

Recorded result, `O=C1CC[C@H](/C=C(\c2ccc(C3CC3)cc2)c2ccc(C3CC3)c(=O)[nH]2)N1` , EC50: 10 to 500 nM

Lab note: `CCc1ccc(/C(=C/C2CCCC2)c2ccc(SCCCO)cc2)[nH]c1=O` gave EC50 of 10 to 500 nM

The compound identified as `CC(C)(C)c1ccc(/C(=C\CN2CCCCC2=O)c2ccc(Cl)c(=O)[nH]2)cc1` registered its EC50 at 500 to 3000 nM

Form: compound = Cc1ccc(C(C[C@H]2CCC(=O)N2)c2ccc(Cl)c(=O)[nH]2)cc1Cl (single isomer, unassigned) [Example 4-311] ; EC50 = 3000 to 10000 nM
